target: IDH1 R132H (Homo sapiens (Human), UniProt O75874, R132H)
Sequence (O75874 whole entry R132H): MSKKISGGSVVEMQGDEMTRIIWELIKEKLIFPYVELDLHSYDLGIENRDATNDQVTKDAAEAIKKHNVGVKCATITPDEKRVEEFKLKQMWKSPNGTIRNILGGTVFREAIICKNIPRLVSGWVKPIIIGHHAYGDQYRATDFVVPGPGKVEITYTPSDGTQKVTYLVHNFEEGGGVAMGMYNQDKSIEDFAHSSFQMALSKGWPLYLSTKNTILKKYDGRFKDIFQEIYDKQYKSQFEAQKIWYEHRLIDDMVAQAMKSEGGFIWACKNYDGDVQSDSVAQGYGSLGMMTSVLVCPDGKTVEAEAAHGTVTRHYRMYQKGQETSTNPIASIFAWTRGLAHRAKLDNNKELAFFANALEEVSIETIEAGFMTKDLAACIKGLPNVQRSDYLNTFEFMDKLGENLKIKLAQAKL
method-description: Assays for IDH1 R132H Inhibitors (NADPH/aKG, resazurin detection)
Format: biochemical
condition: IDH1 R132H enzyme, Table 3; read-out: R132H IC50
pIC50: −log10 of the molar value.
# pIC50 annotations

Use the examples below as a reference point.
molecule	value-observed
CC(C)[C@@H]1CN(c2nc(C3CC3)c3c(c2C#N)CC(C)(C)OC3)CCN1C(=O)CCc1ccco1	6.00 to 6.30
COC(=O)C(C)CCC(=O)N1CCN(c2nc(C3CC3)c3c(c2C#N)CC(C)(C)OC3)C[C@H]1C(C)C (some centres unmarked)	6.00 to 6.30
CCOC(=O)[C@@H]1C[C@H]1C(=O)N1CCN(c2nc(C3CC3)c3c(c2C#N)CC(C)(C)OC3)C[C@H]1C(C)C	> 6.30
C/C=C/C(=O)N1CCc2c(C#N)c(N3CCN(C(=O)C4CC4)[C@H](C4CC4)C3)nc(C3CC3)c2C1	6.00 to 6.30
CCOC(=O)[C@@H]1CN(c2nc(C3CC3)c3c(c2C#N)CC(C)(C)OC3)CCN1C(C)=O	6.00 to 6.30

Fill in the recorded pIC50 for this molecule, with IDH1 R132H (Homo sapiens (Human), UniProt O75874, R132H) as test system: `C=CS(=O)(=O)N1CCc2c(C#N)c(N3CCN(C)CC3)nc(C3CC3)c2C1`
6.00 to 6.30

Fill in the recorded pIC50 for this molecule, with IDH1 R132H (Homo sapiens (Human), UniProt O75874, R132H) as test system: `COC(=O)[C@@H]1C[C@H]1C(=O)N1CCN(c2nc(C3CC3)c3c(c2C#N)CC(C)(C)OC3)C[C@H]1C(C)C`
> 6.30

Fill in the recorded pIC50 for this molecule, with IDH1 R132H (Homo sapiens (Human), UniProt O75874, R132H) as test system: `[2H]C1([2H])CN(C(=O)CCOC)[C@]([2H])(C([2H])(C([2H])([2H])[2H])C([2H])([2H])[2H])CN1c1nc(C2CC2)c2c(c1C#N)CC(C)(C)OC2`
> 6.30

Fill in the recorded pIC50 for this molecule, with IDH1 R132H (Homo sapiens (Human), UniProt O75874, R132H) as test system: `COCCC(=O)N1CCN(c2nc(C3CC3)c3c(c2C#N)CC(C)(C)OC3)C[C@H]1C`
6.00 to 6.30

Fill in the recorded pIC50 for this molecule, with IDH1 R132H (Homo sapiens (Human), UniProt O75874, R132H) as test system: `[2H]C1([2H])CN(c2nc(C3CC3)c3c(c2C#N)CC(C)(C)OC3)C([2H])([2H])[C@@]([2H])(C([2H])(C([2H])([2H])[2H])C([2H])([2H])[2H])N1C(=O)CCOC`
> 6.30

Fill in the recorded pIC50 for this molecule, with IDH1 R132H (Homo sapiens (Human), UniProt O75874, R132H) as test system: `COC(=O)NCCC(=O)N1CCN(c2nc(C3CC3)c3c(c2C#N)CC(C)(C)OC3)C[C@H]1C(C)C`
6.00 to 6.30

Fill in the recorded pIC50 for this molecule, with IDH1 R132H (Homo sapiens (Human), UniProt O75874, R132H) as test system: `CSCC(=O)N1CCN(c2nc(C3CC3)c3c(c2C#N)CC(C)(C)OC3)C[C@H]1C(C)C`
> 6.30

Fill in the recorded pIC50 for this molecule, with IDH1 R132H (Homo sapiens (Human), UniProt O75874, R132H) as test system: `CC(C)[C@@H]1CN(c2nc(C3CC3)c3c(c2C#N)CC(C)(C)OC3)CCN1C(=O)CCO`
> 6.30

Fill in the recorded pIC50 for this molecule, with IDH1 R132H (Homo sapiens (Human), UniProt O75874, R132H) as test system: `COC(=O)OC[C@@H]1C[C@H]1C(=O)N1CCN(c2nc(C3CC3)c3c(c2C#N)CC(C)(C)OC3)C[C@H]1C(C)C`
> 6.30
